- Test system: pooled human cryopreserved hepatocytes (pHHeps)
- protocol_summary: Metabolic stability, pooled human cryopreserved hepatocyte incubations
- conditions_used: pHHeps, 3 min
Please note: % parent compound remaining, Average exactly at 80% is label 0. Only values below 80% get label 1.

# compound, category_label
measured = [
    ("CC(C)[C@@H](NC(=O)c1nn(Cc2ccc(F)cc2)c2ccccc12)C(N)=O [(R)-AB-FUBINACA (8)]", "label 0"),
    ("COC(=O)[C@@H](NC(=O)c1cn(CC2CCCCC2)c2ccccc12)C(C)C [(S)-AMB-CHMICA (9)]", "label 1"),
    ("COC(=O)[C@@H](NC(=O)c1nn(Cc2ccc(F)cc2)c2ccccc12)C(C)(C)C [(S)-MDMB-FUBINACA (6)]", "label 0"),
    ("COC(=O)[C@H](NC(=O)c1nn(Cc2ccc(F)cc2)c2ccccc12)C(C)(C)C [(R)-MDMB-FUBINACA (6)]", "label 0"),
    ("COC(=O)C(NC(=O)c1cn(CC2CCCCC2)c2ccccc12)C(C)C (stereo in doubt) [(R)-AMB-CHMICA (9)]", "label 1"),
]

====

- protocol_summary: Metabolic stability, pooled human liver microsome incubations
- conditions_used: human, microsomes, pH 7.4, Intrinsic clearance, CLint, pHLM, alternative microsomal scaling factor 45 mg microsomal protein per gram liver
- Procedure: Total incubation volume was 500 µL. Procedure: Test compound working solutions (50 µM in potassium phosphate buffer (pH 7.4)) were prepared (<1% DMSO). pHLM were thawed and diluted in potassium phosphate buffer (pH 7.4). […] Reactions were quenched in 200 µL ACN spiked with donepezil (IS, 50 ng mL^−1). […] Samples were analysed by UPLC-MS/MS in a 96 deep-well 2 mL plate. […]
value_kind: CLint scaled at 0.5 µM (mL/min/kg)

# compound, recorded_measurement
measured = [
    ("COC(=O)[C@@H](NC(=O)c1nn(CCCCF)c2ccccc12)C(C)(C)C [(S)-4F-MDMB-BINACA (4)]", 165),
    ("C=CCCCn1cc(C(=O)N[C@H](C(=O)OC)C(C)(C)C)c2ccccc21 [(S)-MDMB-4en-PICA (12)]", 192),
    ("COC(=O)[C@@H](NC(=O)c1cn(CCCCCF)c2ccccc12)C(C)(C)C [(S)-5F-MDMB-PICA (3)]", 181),
    ("C=CCCCn1nc(C(=O)N[C@@H](C(=O)OC)C(C)(C)C)c2ccccc21 [(R)-MDMB-4en-PINACA (5)]", 292),
]

====

- Test system: pooled human cryopreserved hepatocytes (pHHeps)
- protocol_summary: Metabolic stability, pooled human cryopreserved hepatocyte incubations
- conditions_used: pHHeps, 99x10^6 hepatocytes per gram liver
Binning of Predicted in vivo hepatic clearance, CLH into classes: low value: < 4 mL/min/kg; medium value: ≥ 4 mL/min/kg and < 10 mL/min/kg; high value: ≥ 10 mL/min/kg

# molecule, category_label
rows = [
    ("COC(=O)[C@@H](NC(=O)c1nn(Cc2ccc(F)cc2)c2ccccc12)C(C)C [(S)-AMB-FUBINACA (1)]", "high value"),
    ("COC(=O)[C@@H](NC(=O)c1nn(CCCCF)c2ccccc12)C(C)(C)C [(S)-4F-MDMB-BINACA (4)]", "high value"),
    ("CC(C)[C@H](NC(=O)c1nn(CC2CCCCC2)c2ccccc12)C(N)=O [(S)-AB-[…] (11)]", "medium value"),
    ("C=CCCCn1cc(C(=O)N[C@H](C(=O)OC)C(C)(C)C)c2ccccc21 [(S)-MDMB-4en-PICA (12)]", "medium value"),
    ("COC(=O)[C@@H](NC(=O)c1nn(CCCCCF)c2ccccc12)C(C)C [(S)-5F-AMB-PINACA (10)]", "high value"),
    ("COC(=O)[C@H](NC(=O)c1nn(CCCCF)c2ccccc12)C(C)(C)C [(R)-4F-MDMB-BINACA (4)]", "medium value"),
    ("CC(C)[C@H](NC(=O)c1nn(Cc2ccc(F)cc2)c2ccccc12)C(N)=O [(S)-AB-FUBINACA (8)]", "low value"),
    ("COC(=O)[C@@H](NC(=O)c1nn(Cc2ccc(F)cc2)c2ccccc12)C(C)(C)C [(S)-MDMB-FUBINACA (6)]", "low value"),
    ("C=CCCCn1nc(C(=O)N[C@H](C(=O)OC)C(C)(C)C)c2ccccc21 [(S)-MDMB-4en-PINACA (5)]", "medium value"),
]
